- System: Trypanosoma brucei
- Experimental details: DNDI: Inhibition of Human African Trypanosomiasis, SBRI 427, in vitro at 2 ug.mL-1
- Assay type: functional
Among all 4,400 compounds or so, about 390 (8.9%) showed an effect of 50% or more. Shown is part of a subset that was picked to be rich in strong results.
Binary classification by % inhibition, with 20% as an inclusive lower bound for TRUE; all other cases are FALSE.

Cc1ccc(Oc2cc(/C(=N/O)N3CC(C)CC(C)C3)ccn2)c(C)c1 (stereo unspecified) :: TRUE
COCCN/C(=N\O)c1ccnc(Oc2cc(Cl)ccc2Cl)c1 :: TRUE
CC(C)(C)CN/C(=N\O)c1ccnc(Oc2cc(Cl)ccc2Cl)c1 :: TRUE
CCC(C)(C)N/C(=N\O)c1cccnc1OCC(C)(C)C :: FALSE
Cc1ccc(Oc2cc(/C(=N/O)N3CCCCC3)ccn2)c2c1CCC2 :: FALSE
Cc1cc(C)cc(CN/C(=N\O)c2ccc(Oc3cc(Cl)ccc3Cl)nc2)c1 :: FALSE
Cc1ccc(Oc2cc(/C(=N/O)N3CCCCCC3)ccn2)c(C)c1 :: TRUE
CCOc1ccc(-c2nc(CNc3ccc(OC)cc3)co2)cc1 :: FALSE
O/N=C(\NCc1ccccc1)c1ccc(Oc2cc(Cl)ccc2Cl)nc1 :: TRUE
COc1ccc(OC)c(NCc2coc(-c3ccc(C)cc3)n2)c1 :: FALSE
COCCN/C(=N\O)c1ccnc(Oc2ccc(C)cc2C)c1 :: FALSE
